- target-or-test-system: T1, lecithin:cholesterol acyltransferase (LCAT), purified from human plasma (human, UniProt P04180 25-440)
- T1 sequence (looked up): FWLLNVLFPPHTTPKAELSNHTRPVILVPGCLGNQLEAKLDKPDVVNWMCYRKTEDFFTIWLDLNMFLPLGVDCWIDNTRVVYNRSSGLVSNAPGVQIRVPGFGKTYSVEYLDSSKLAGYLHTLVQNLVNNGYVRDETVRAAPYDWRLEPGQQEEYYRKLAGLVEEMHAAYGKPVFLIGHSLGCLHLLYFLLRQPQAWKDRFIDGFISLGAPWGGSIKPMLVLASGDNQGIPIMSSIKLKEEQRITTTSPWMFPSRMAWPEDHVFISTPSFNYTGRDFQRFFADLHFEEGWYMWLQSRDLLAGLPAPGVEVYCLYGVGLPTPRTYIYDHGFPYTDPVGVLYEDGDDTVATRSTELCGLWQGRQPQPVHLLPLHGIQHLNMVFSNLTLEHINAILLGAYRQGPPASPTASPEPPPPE
- measurement-notes: cell-based or functional assay
Non-standard residues stand in square brackets, D forms with d. No end group written: not given here. Orn = NCCC[C@H](N)C(=O)O; Aib = CC(C)(N)C(=O)O
# ACTIVITY (%) LCAT per entry
The figure you give is taken to be in %; do not add the unit.

Example cases with answers are listed next.
1. [dP]VLELFENLLERLLDALQKKLK [peptide 144]: 111
2. Ac-PVLDLFRELLEEWKQKLK-NH2 [peptide 215]: 38
3. XVLDLFRELLNELLEALKQKLK (D-Pro (p) at 1) [peptide 21]: 57
4. PVLDEFREKLNE[Aib][Aib]EALKQKLK [peptide 110]: 0
5. PVLDEFRELLNEELEALKQKLK [peptide 103]: 1
6. GVLELFLNLLERLLDALQKKLK [peptide 177]: 10
7. Ac-PLLDLFRELLEELKQKLK-NH2 [peptide 197]: 81
8. PVLDLFRELLNELLELLKQKLK [peptide 127]: 47

Query string: Indicate the recorded ACTIVITY (%) LCAT value for this binder: XVLDLFRELLNELLEALKQKLKK (D-Pro (p) at 1) [peptide 5]
Result string: 90

Query string: Consider the binder Ac-DVLDLFRELLEELKQKLK-NH2 [peptide 221] and give its recorded ACTIVITY (%) LCAT.
Result string: 12

Query string: Could you please provide reported ACTIVITY (%) LCAT for PVLELFENLLE[Orn]LLDALQ[Orn][Orn]L[Orn] [peptide 170] ? Thanks!
Result string: 17

Query string: Provide only the value of recorded ACTIVITY (%) LCAT for PVLDLFDNLLDRLLDLLNKKLK [peptide 173]
Result string: 15

Query string: Identify measured ACTIVITY (%) LCAT associated with PVLDEFRELLNE[Aib]LEALKQKLK [peptide 91]
Result string: 6

Query string: Report ACTIVITY (%) LCAT for PVLDEFREKLNEELE[Aib]LKQKLK [peptide 120]
Result string: 0

Query string: Supply reported ACTIVITY (%) LCAT belonging to this binder: PVLDLFRELLNELLELLKQKLK [peptide 26]
Result string: 47
